Values from ChEMBL document CHEMBL5291721

molecular target: 5-hydroxytryptamine receptor 2B (Homo sapiens, UniProt P41595); assay type: functional, cell-based; also: assay procedure not described here
Sequence (P41595 whole entry): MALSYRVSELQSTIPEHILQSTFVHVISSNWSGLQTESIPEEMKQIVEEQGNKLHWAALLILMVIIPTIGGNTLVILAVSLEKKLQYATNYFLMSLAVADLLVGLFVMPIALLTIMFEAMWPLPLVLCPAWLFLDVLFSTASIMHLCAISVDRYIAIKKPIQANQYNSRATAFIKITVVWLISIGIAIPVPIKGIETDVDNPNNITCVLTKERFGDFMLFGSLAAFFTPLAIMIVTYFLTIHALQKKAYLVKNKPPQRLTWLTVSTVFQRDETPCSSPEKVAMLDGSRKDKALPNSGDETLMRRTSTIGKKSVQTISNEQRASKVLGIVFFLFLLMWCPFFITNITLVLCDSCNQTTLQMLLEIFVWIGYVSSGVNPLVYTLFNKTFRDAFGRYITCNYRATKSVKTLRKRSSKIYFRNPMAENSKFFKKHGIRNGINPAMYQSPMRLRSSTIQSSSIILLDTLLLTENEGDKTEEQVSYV
resultType: AC50

Task: Find the measured AC50: item O=[N+]([O-])O[C@@H]1CO[C@H]2[C@@H]1OC[C@@H]2O [ISOSORBIDE MONONITRATE] , target or system 5-hydroxytryptamine receptor 2B (Homo sapiens, UniProt P41595). Also: assay procedure not described here.
Result: > 10 µM

Task: Find the measured AC50: item Cc1ccc(-n2nccn2)c(C(=O)N2CCN(c3nc4cc(Cl)ccc4o3)CC[C@H]2C)c1 , target or system 5-hydroxytryptamine receptor 2B (Homo sapiens, UniProt P41595). Also: assay procedure not described here.
Result: > 30 µM

Task: Find the measured AC50: item COC(=O)C1=C(C)NC(C)=C(C(=O)OC(C)(C)CN(C)CCC(c2ccccc2)c2ccccc2)C1c1cccc([N+](=O)[O-])c1 (configuration not stated) , target or system 5-hydroxytryptamine receptor 2B (Homo sapiens, UniProt P41595). Also: assay procedure not described here.
Result: > 30 µM

Task: Find the measured AC50: item NCC(=O)CCC(=O)O , target or system 5-hydroxytryptamine receptor 2B (Homo sapiens, UniProt P41595). Also: assay procedure not described here.
Result: > 30 µM

Task: Find the measured AC50: item C#C[C@]1(O)CC[C@H]2[C@@H]3CCC4=Cc5oncc5C[C@]4(C)[C@H]3CC[C@@]21C , target or system 5-hydroxytryptamine receptor 2B (Homo sapiens, UniProt P41595). Also: assay procedure not described here.
Result: > 10 µM

Task: Find the measured AC50: item COc1ccccc1OCCNCC(O)c1ccc(C)c(S(N)(=O)=O)c1 (configuration not stated) , target or system 5-hydroxytryptamine receptor 2B (Homo sapiens, UniProt P41595). Also: assay procedure not described here.
Result: > 30 µM

* * *

molecular target: Histamine H1 receptor (Homo sapiens); also: assay procedure not described here
Sequence (P35367 whole entry): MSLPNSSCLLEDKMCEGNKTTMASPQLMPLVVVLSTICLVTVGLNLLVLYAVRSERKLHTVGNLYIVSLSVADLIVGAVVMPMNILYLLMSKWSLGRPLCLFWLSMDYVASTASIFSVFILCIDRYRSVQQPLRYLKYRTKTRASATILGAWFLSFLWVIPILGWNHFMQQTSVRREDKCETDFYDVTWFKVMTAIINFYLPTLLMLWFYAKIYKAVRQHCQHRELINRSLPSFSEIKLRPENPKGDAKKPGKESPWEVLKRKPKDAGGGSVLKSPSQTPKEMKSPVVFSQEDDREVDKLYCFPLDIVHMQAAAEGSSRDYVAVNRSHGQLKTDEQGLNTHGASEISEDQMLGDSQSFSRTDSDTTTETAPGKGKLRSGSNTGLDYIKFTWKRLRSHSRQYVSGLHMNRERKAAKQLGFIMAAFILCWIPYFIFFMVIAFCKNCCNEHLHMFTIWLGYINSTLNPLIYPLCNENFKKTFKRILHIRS
// reported AC50 per item

Solved cases below.
{"columns": ["compound", "assayTarget", "AC50"],
 "data": [
  ["CC(CC1c2ccccc2CCc2ccccc21)CN(C)C (stereo unspecified)", "Histamine H1 receptor (Homo sapiens)", "0.015 µM"],
  ["CCOC(=O)[N-]c1cn(N2CCOCC2)n[o+]1", "Histamine H1 receptor (Homo sapiens)", "> 30 µM"],
  ["CCOC(=O)[C@H](CCc1ccccc1)N[C@@H](C)C(=O)N1C(=O)N(C)C[C@H]1C(=O)O", "Histamine H1 receptor (Homo sapiens)", "> 30 µM"],
  ["CCC1(CC)C(=O)NCC(C)C1=O (stereo unspecified)", "Histamine H1 receptor (Homo sapiens)", "> 30 µM"],
  ["COc1ccc2c3c1O[C@H]1[C@@H](O)C=C[C@H]4[C@@H](C2)N(C)CC[C@@]341", "Histamine H1 receptor (Homo sapiens)", "> 10 µM"]
]}

Task: Query: AC50; subject: CC1(C)NC(=O)N(c2ccc([N+](=O)[O-])c(C(F)(F)F)c2)C1=O [NILUTAMIDE]
Result: > 30 µM

Task: Query: AC50; subject: COc1ccccc1OCC(O)CN1CCN(CC(=O)Nc2c(C)cccc2C)CC1 (stereo unspecified)
Result: > 30 µM

Task: Query: AC50; subject: COC1=C(OC)C(=O)C(C/C=C(\C)CC/C=C(\C)CC/C=C(\C)CC/C=C(\C)CC/C=C(\C)CC/C=C(\C)CC/C=C(\C)CC/C=C(\C)CC/C=C(\C)CCC=C(C)C)=C(C)C1=O
Result: > 30 µM

Task: Query: AC50; subject: CO[C@@H]1[C@@H](O[C@@H]2O[C@H](C)[C@@H](O[C@H]3C[C@@](C)(O)[C@@H](OC(=O)CC(C)C)[C@H](C)O3)[C@H](N(C)C)[C@H]2O)[C@@H](CC=O)C[C@@H](C)[C@@H](O)/C=C/C=C/C[C@@H](C)OC(=O)C[C@H]1OC(C)=O
Result: > 10 µM

Task: Query: AC50; subject: COc1ccccc1OCCNCC(O)c1ccc(C)c(S(N)(=O)=O)c1 (stereo unspecified)
Result: 16 µM
